Target: human Dual Specificity Protein Phosphatase 3 (DUSP3), DUSP3 (gene 1845)
Assay: NVS_ENZ_hDUSP3: NovaScreen (NVS) Enzymatic Assay for human Dual Specificity Protein Phosphatase 3 (DUSP3) (AID 2283152);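 further: phosphatase activity of recombinant human DUSP3 on a fluorogenic substrate without cells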
Active and inactive are the calls of the source. How the source made its calls: active means hit-call score of the fitted dose curve at least 0.9, where 1 is the maximum; inconclusive means response in the unintended direction; inactive means score below 0.9.
Thanks in advance; please answer with one of these: yes (1) for active, no (0) for inactive

Examples from the recorded data:
• CCNS(=O)(=O)C(F)(F)C(F)(F)C(F)(F)C(F)(F)C(F)(F)C(F)(F)C(F)(F)C(F)(F)F = no (0)
• CN(C)[C@@H]1C(=O)C(C(N)=O)=C(O)[C@@]2(O)C(=O)C3=C(O)c4c(O)cccc4[C@@](C)(O)[C@H]3C[C@@H]12 = yes (1)

We next turn to a different compound, shown below.
Test call, this compound: COP(=S)(OC)SCN1C(=O)c2ccccc2C1=O
no (0)

====

Molecular target: Bile acid receptor (Homo sapiens) (UniProt Q96RI1)
Sequence (Q96RI1 whole entry, looked up): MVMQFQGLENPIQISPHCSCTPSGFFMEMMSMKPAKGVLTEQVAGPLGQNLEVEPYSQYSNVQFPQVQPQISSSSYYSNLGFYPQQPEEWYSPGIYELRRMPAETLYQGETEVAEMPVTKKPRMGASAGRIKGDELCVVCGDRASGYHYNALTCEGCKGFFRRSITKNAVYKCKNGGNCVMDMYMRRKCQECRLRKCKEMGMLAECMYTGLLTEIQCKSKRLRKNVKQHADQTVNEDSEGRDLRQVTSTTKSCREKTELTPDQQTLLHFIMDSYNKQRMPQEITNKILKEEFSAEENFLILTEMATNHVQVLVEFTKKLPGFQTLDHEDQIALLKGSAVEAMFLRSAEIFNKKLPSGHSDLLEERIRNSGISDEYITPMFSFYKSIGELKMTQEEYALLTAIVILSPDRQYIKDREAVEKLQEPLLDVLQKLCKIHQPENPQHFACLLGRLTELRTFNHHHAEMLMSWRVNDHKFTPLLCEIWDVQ
Assay: OT_FXR_FXRSRC1_1440: Odyssey Thera (OT) 24-hour HEK293T Protein-Complementation Assay for Farnesoid X receptor/SRC-1 Co-activator (AID 2283384)
Records with an inconclusive call do not appear. Calls of active or inactive are those of the source. How the source made its calls: active means hit-call score of the fitted dose curve at least 0.9, where 1 is the maximum; inconclusive means response in the unintended direction; inactive means score below 0.9.
RECORDED_ENDPOINT: AC50

Observe how each entry below is paired with its result.
• Nc1ccc([N+](=O)[O-])cc1 = 13.3 µM (active)
• CC(C)(OOC(C)(C)c1ccccc1)c1ccccc1 = 65.1 µM (active)
• Clc1ccc(C(c2ccc(Cl)cc2)C(Cl)(Cl)Cl)cc1 = inactive
• ClCCOCCCl = inactive
• O=C1CCCO1 = inactive

Continue with the next compound.
# input compound: Nc1ccc(Cc2ccc(N)cc2)cc1 ; wanted: its AC50
inactive

====

Read-out: adenosine kinase (ADK) gene, ADK (gene 132)
Assay: LTEA_HepaRG_ADK: Life Technologies and Expression Analysis (LTEA) Assay for adenosine kinase (ADK) gene using HepaRG (AID 2283471)
Details: mRNA level, 48 h; actives raise or lower the signal
Method: LTEA_HepaRG is a cell based, multiplexed-readout assay that uses HepaRG, a human liver cell line, with measurements taken at 48 hours after chemical dosing on a 96-well plate.LTEA_HepaRG_ADK is one of 102 assay component(s) measured in the LTEA HepaRG cell culture assay. It is a marker of Steatosis.Data from the assay component LTEA_HepaRG_ADK was analyzed into 1 endpoint. […]
Active and inactive are the calls of the source. How the source made its calls: active means hit-call score of the fitted dose curve at least 0.9, where 1 is the maximum; inactive means score below 0.9.
Thanks in advance; please answer with one of these: active, inactive

Examples from the recorded data:
- CC(C)(C)OOC(=O)c1ccccc1: inactive
- Nc1ccc([N+](=O)[O-])cc1: inactive

Test call, this compound: CC(C)(C)OOC(C)(C)CCC(C)(C)OOC(C)(C)C
inactive

====

Read-out: Human Leukocyte Antigen - DR isotype (HLADR), HLA-DRA (gene 3122)
Assay: BSK_BE3C_HLADR: BioMAP Diversity Plus: BE3C Assay for Human Leukocyte Antigen - DR isotype (HLADR) Biomarker Activity (AID 2283032)
Details: primary human bronchial epithelial cells; actives raise or lower the signal
The source made the active and inactive calls. How the source made its calls: active means hit-call score of the fitted dose curve at least 0.9, where 1 is the maximum; inactive means score below 0.9.
Thanks in advance; please answer with one of these: 1 (active), 0 (inactive)

Examples from the recorded data:
* O=[N+]([O-])c1ccc(Oc2ccc(Cl)cc2Cl)cc1 | 1
* Cn1cc(-c2ccccc2)c(=O)c(-c2cccc(C(F)(F)F)c2)c1 | 0

Test call, this molecule: N#CC(Br)(Br)C(N)=O
0

Test call, this molecule: O=C(Nc1ccccc1)c1ccccc1I
0

Test call, this molecule: CCCCCCCCOC(=O)c1ccc(C(=O)OCCCCCCCC)c(C(=O)OCCCCCCCC)c1
0

These entries and their values trace back to PubChem BioAssay (EPA / NIEHS).
